- target_or_test_system: Recombinant human JARID1B/KDM5B (Homo sapiens)
- Construct: purchased Active Motif 31432; host or cells: Sf9 insect cells
- test_summary: LANCE Ultra TR-FRET JARID1B (KDM5B) demethylase inhibition assay
- Format: biochemical
- study_conditions: 0.1 uM of test-compounds, FLAG-JARID1B, 500 nM biotinylated H3K4me3 peptide substrate, 30 min at room temperature
As shown below, each of these compounds has a reported inhibition at 0.1 µM value.

Recorded results for 6 compounds are shown here.
given_smiles: O=c1[nH]c(COc2ccc(Cc3ccccc3)cc2)nc2c(-c3ccccn3)nccc12
target_or_test_system: Recombinant human JARID1B/KDM5B (Homo sapiens)
inhibition at 0.1 µM: 20 to 50%

given_smiles: O=c1[nH]cnc2c(-n3cc(-c4ccc(F)cc4)cn3)nccc12
target_or_test_system: Recombinant human JARID1B/KDM5B (Homo sapiens)
inhibition at 0.1 µM: < 20%

given_smiles: COCCNc1nc(-c2nccc3c(=O)[nH]c(COc4ccc(F)c(Cl)c4)nc23)cs1
target_or_test_system: Recombinant human JARID1B/KDM5B (Homo sapiens)
inhibition at 0.1 µM: ≥ 50%

given_smiles: O=c1[nH]cnc2c(-c3csc(NCCO)n3)nccc12
target_or_test_system: Recombinant human JARID1B/KDM5B (Homo sapiens)
inhibition at 0.1 µM: ≥ 50%

given_smiles: N[C@H]1CC[C@@H](Nc2nc(-c3nccc4c(=O)[nH]cnc34)cs2)CC1
target_or_test_system: Recombinant human JARID1B/KDM5B (Homo sapiens)
inhibition at 0.1 µM: 20 to 50%

given_smiles: O=c1[nH]cnc2c(-c3csc(NCC4CCN(CCO)CC4)n3)nccc12
target_or_test_system: Recombinant human JARID1B/KDM5B (Homo sapiens)
inhibition at 0.1 µM: ≥ 50%

We next turn to a different compound, shown below.
Record `CN(C)CCNc1nc(-c2nccc3c(=O)[nH]c(COc4ccc(F)cc4)nc23)cs1` . Reported inhibition at 0.1 µM: ≥ 50%

* * *

- target_or_test_system: Recombinant human JARID1B/KDM5B (Homo sapiens, UniProt Q9UGL1)
- Construct: purchased Active Motif 31432; host or cells: Sf9 insect cells
- Sequence (Q9UGL1 whole entry): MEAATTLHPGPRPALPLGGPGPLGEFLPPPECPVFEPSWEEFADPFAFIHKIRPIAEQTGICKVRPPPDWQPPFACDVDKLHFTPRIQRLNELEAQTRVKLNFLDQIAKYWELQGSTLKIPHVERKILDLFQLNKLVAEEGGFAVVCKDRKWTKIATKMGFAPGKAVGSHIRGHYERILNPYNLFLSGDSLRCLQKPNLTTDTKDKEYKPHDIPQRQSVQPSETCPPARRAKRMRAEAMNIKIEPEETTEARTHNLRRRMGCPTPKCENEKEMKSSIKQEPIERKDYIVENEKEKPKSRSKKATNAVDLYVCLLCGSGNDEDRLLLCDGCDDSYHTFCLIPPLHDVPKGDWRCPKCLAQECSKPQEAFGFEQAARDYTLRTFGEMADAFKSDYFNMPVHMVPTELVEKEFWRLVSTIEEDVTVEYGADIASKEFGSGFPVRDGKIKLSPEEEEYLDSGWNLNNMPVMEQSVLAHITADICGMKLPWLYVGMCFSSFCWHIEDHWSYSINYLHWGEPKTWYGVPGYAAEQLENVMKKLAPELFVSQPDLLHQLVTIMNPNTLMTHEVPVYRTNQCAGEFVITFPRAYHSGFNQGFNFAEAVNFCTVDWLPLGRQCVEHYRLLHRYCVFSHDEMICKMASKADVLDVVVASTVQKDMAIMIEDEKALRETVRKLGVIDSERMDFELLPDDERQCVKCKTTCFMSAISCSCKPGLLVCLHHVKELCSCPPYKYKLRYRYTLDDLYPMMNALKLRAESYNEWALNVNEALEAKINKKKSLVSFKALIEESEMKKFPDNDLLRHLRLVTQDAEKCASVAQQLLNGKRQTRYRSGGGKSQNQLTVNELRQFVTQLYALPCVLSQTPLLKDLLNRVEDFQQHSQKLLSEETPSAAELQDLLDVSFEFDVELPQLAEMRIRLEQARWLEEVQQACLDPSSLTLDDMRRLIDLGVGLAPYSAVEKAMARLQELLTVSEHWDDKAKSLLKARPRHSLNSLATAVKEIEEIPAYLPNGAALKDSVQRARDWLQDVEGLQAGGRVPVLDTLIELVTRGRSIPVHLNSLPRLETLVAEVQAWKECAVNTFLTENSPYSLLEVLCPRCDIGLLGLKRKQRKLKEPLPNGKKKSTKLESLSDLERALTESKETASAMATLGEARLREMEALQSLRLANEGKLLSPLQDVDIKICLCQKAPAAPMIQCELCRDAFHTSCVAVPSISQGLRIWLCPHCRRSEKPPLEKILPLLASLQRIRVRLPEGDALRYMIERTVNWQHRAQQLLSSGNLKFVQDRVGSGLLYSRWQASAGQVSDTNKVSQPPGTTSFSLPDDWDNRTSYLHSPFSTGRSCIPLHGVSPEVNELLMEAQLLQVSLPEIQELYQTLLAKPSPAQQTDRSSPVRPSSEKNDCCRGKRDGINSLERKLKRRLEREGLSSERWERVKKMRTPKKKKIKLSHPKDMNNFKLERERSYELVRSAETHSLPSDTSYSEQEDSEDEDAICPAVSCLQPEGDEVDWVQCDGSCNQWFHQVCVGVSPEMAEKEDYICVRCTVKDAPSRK
- test_summary: LANCE Ultra TR-FRET JARID1B (KDM5B) demethylase inhibition assay
- Type: biochemical
- study_conditions: 0.1 uM of test-compounds, FLAG-JARID1B, 500 nM biotinylated H3K4me3 peptide substrate, 30 min at room temperature
- Text: FLAG-tagged JARID1B (also known as KDM5B) protein was screened against 49 compounds. For this compound screening, LANCE Ultra time-resolved fluorescence resonance energy transfer (TR-FRET) assay was employed using a europoium (Eu)-labeled antibody that can specifically recognize mono- or dimethylated peptides (H3K4me2/1) and ULight-streptavidin (ULight-SA), a small molecule fluorescent dye. […]
The following molecules are shown together with reported inhibition at 0.1 µM values.

molecule: CC(C)N1CCC(CNc2nc(-c3nccc4c(=O)[nH]cnc34)cs2)CC1
target_or_test_system: Recombinant human JARID1B/KDM5B (Homo sapiens, UniProt Q9UGL1)
measurement_label: inhibition at 0.1 µM
result: ≥ 50%
//
molecule: O=c1[nH]c(COc2cc(Cl)cc(Cl)c2)nc2c(-c3csc(NCCO)n3)nccc12
target_or_test_system: Recombinant human JARID1B/KDM5B (Homo sapiens, UniProt Q9UGL1)
measurement_label: inhibition at 0.1 µM
result: 20 to 50%
//
molecule: O=c1[nH]c(COCc2ccccc2)nc2c(-c3csc(NCC4CCN(CCO)CC4)n3)nccc12
target_or_test_system: Recombinant human JARID1B/KDM5B (Homo sapiens, UniProt Q9UGL1)
measurement_label: inhibition at 0.1 µM
result: < 20%
//
molecule: O=c1[nH]c(COc2ccc(F)c(Cl)c2)nc2c(-c3csc(NC4CCNCC4)n3)nccc12
target_or_test_system: Recombinant human JARID1B/KDM5B (Homo sapiens, UniProt Q9UGL1)
measurement_label: inhibition at 0.1 µM
result: ≥ 50%
//
molecule: CN1CCC(Nc2nc(-c3nccc4c(=O)[nH]c(COc5cc(F)cc(F)c5)nc34)cs2)CC1
target_or_test_system: Recombinant human JARID1B/KDM5B (Homo sapiens, UniProt Q9UGL1)
measurement_label: inhibition at 0.1 µM
result: ≥ 50%
//
molecule: O=c1[nH]c(CCc2ccccc2)nc2c(-c3csc(NC4CCN(Cc5ccccc5)CC4)n3)nccc12
target_or_test_system: Recombinant human JARID1B/KDM5B (Homo sapiens, UniProt Q9UGL1)
measurement_label: inhibition at 0.1 µM
result: ≥ 50%
//
molecule: COCCNc1nc(-c2nccc3c(=O)[nH]c(COCc4ccccc4)nc23)cs1
target_or_test_system: Recombinant human JARID1B/KDM5B (Homo sapiens, UniProt Q9UGL1)
measurement_label: inhibition at 0.1 µM
result: < 20%
//
molecule: CN1CCN(CCNc2nc(-c3nccc4c(=O)[nH]cnc34)cs2)CC1
target_or_test_system: Recombinant human JARID1B/KDM5B (Homo sapiens, UniProt Q9UGL1)
measurement_label: inhibition at 0.1 µM
result: 20 to 50%

Sure, the documented inhibition at 0.1 µM for `Cn1cc(-c2cn(-c3nccc4c(=O)[nH]cnc34)nc2N)cn1` is 20 to 50%

The molecule `O=c1[nH]cnc2c(-c3cnn(CCN4CCOCC4)c3)nccc12` showed inhibition at 0.1 µM equal to 20 to 50%

Entry `Nc1nn(-c2nccc3c(=O)[nH]cnc23)cc1-c1cnn(CCO)c1` — recorded inhibition at 0.1 µM = 20 to 50%
